Kd for assorted binders
# target_desc: T1, human IFP35 protein (human, UniProt P80217 1-286, limits assumed)
# T1 construct: also called interferon-induced protein 35; IFI35
# T1 chain: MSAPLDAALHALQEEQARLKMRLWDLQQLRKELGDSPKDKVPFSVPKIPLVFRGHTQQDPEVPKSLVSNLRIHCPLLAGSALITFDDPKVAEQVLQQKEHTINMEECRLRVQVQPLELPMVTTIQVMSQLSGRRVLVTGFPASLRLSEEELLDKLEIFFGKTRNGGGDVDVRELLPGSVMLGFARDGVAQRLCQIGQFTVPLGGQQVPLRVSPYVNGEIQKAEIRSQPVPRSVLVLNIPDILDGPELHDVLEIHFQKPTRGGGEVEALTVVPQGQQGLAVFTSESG
# assay_text: affinity kinetics (fortebio), antibody loaded

binder	Kd, nM
AE001-H3+L3 (antibody, V domains shown, The same doubt about the 'constant region' label applies as for AE001-H1+L1; also called AE001H3 + AE001L3; humanized antibody) VH: QVQLVQSGAEVKKPGASVKVSCKASGYTFTNYGMNWVRQAPGQGLEWMGWINTYTGEPTVAQKFQGRFTFTLDTSTSTAYLELSSLRNEDTAVYFCARYGYSWAMDYWGQGTSVTVSS VL: DIQMTQSPSSLSASVGDRVTITCQASSSVSYMHWYQQKPGKAPKRLIYDTSKLASGVPSRFSGSGSGTDYTLTISSLQPEDIATYYCQQWSSNPPITFGAGTKLEIK	13.9
AE001-6 (antibody, human IgG1, V domains shown, Human IgG1; CDR mutant of AE001-H3+L3; also called AE001-6Hc + Lc; AE001-6HC + LC) VH: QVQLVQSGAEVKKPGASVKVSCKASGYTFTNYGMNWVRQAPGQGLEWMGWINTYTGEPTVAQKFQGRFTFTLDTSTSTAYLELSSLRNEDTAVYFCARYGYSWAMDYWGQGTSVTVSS VL: DIQMTQSPSSLSASVGDRVTITCQASSSVSYMHWYQQKPGKAPKRLIYDTSKLASGVPSRFSGSGSGTDYTLTISSLQPEDIATYYCQQWSPYPPITFGAGTKLEIK	3.35
AE001-9 (antibody, human IgG1, V domains shown, Human IgG1; CDR mutant of AE001-H3+L3; also called AE001-6Hc + 9Lc; AE001-6HC + 9LC) VH: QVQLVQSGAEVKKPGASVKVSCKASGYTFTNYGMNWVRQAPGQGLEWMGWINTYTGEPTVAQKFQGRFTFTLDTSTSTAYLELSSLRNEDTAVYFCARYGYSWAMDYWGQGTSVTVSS VL: DIQMTQSPSSLSASVGDRVTITCQASSSVSYMHWYQQKPGKAPKRLIYDTSKLASGVPSRFSGSGSGTDYTLTISSLQPEDIATYYCQQWSPRPPITFGAGTKLEIK	3.04
AE001-7 (antibody, human IgG1, V domains shown, Human IgG1; CDR mutant of AE001-H3+L3; also called AE001-6Hc + 7Lc; AE001-6HC + 7LC) VH: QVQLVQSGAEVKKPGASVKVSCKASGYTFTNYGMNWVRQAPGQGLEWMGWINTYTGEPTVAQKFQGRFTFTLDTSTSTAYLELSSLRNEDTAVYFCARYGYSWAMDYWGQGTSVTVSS VL: DIQMTQSPSSLSASVGDRVTITCQASSSVSYMHWYQQKPGKAPKRLIYDTSKLASGVPSRFSGSGSGTDYTLTISSLQPEDIATYYCQQWSSNSWSTFGAGTKLEIK	3.46
